Origin of the recorded values: patent US20160040149A1

experiment: Saturation mutagenesis of SEQ ID NO:109: dicamba decarboxylation activity of point mutants (CO2 released), fold of backbone (Tables 7, 8, Megatable 1); conditions: decarboxylation activity (CO2 released) of point mutant vs unmutated backbone protein; backbone 509
PARAMETER MEASURED: Fold Activity (fold)
Answers are plain numbers, in fold.

Record excerpt, results attached:
[
  {
    "MOLECULE": "269 (protein, Dicamba decarboxylase variant) MAQGKVALEEHFAIPETLQDSAGFVPGDYWKELQHRLLDIQDTRLKLMDAHGIETMILSLAAPAVQAIPDRRKAIEIARRANDFLAEECAKRPDRFLAFAALPLQDPDAATEELQRCVNTLGFVGALVNGFSQEGDGQTPLYYDLPQYRPFWGEVEKLDVPFYLHPRNPLPQDSRIYDGHPWLLGPTWAFAQETAVHALRLMASGLFDEHPRLNIILGHMGEGLPYMMYRIDHRIAWVKLPPRYPAKRRFMDYFLENFHITTSGNFRTQTLIDAILEIGADRILFSTDWPFENIDHAADWFNATSIAEADRVKIGRTNARRLFKLDGA",
    "PARAMETER MEASURED": "Fold Activity",
    "VALUE UNITS": "fold",
    "RECORDED NUMBER": 1.1
  },
  {
    "MOLECULE": "266 (protein, Dicamba decarboxylase variant) MAQGKVALEEHFAIPETLQDSAGFVPGDYWKELQHRLLDIQDTRLKLMDAHGIETMILSLAAPAVQAIPDRRKAIEIARRANDFLAEECAKRPDRFLAFAALPLQDPDAATEELQRCVNTLGFVGALVNGFSQEGDGQTPLYYDLPQYRPFWGEVEKLDVPFYLHPRNPLPQDSRIYDGHPWLLGPTWAFAQETAVHALRLMASGLFDEHPRLNIILGHLGEGLPYMMYRIDHRIAWVHEPPRYPAKRRFMDYFNENFHITTSGNFRTQTLIDAILEIGADRILFSTDWPFENIDHAADWFNATSIAEADRLKIGRTNARRLFKLDGA",
    "PARAMETER MEASURED": "Fold Activity",
    "VALUE UNITS": "fold",
    "RECORDED NUMBER": 1.2
  },
  {
    "MOLECULE": "268 (protein, Dicamba decarboxylase variant) MAQGKVALEEHFAIPETLQDSAGFVPGDYWKELQHRLLDIQDTRLKLMDAHGIETMILSLAAPAVQAIPDRRKAIEIARRANDFLAEECAKRPDRFLAFAALPLQDPDAASEELQRCVNTLGFVGALVNGFSVEGDGQTPLYYDLPQYRPFWGEVEKLDVPFYLHPRNPLPQDSRIYDGHPWLLGPTWAFAQETAVHALRLMASGLFDEHPRLNIILGHMGEGLPYMMYRIDHRIAWVHEPPRYPAKRRFMDYFNENFHITTSGNFRTQTLIDAILEIGADRILFATDWPFENIDHAADWFNATSIAEADRVKIGRTNARRLFKLDLD",
    "PARAMETER MEASURED": "Fold Activity",
    "VALUE UNITS": "fold",
    "RECORDED NUMBER": 1.1
  }
]

I have this molecule here, 267 (protein, Dicamba decarboxylase variant) MAQGKVALEEHFAIPETLQDSAGFVPGDYWKELQHRLLDIQDTRLKLMDAHGIETMILSLAAPAVQAIPDRVQAIEIARRANDFLAEECAKRPDRFLAFAALPLQDPDAATEELQRCVNDLGFVGALVNGFSQEGDGQTPLYYDLPQYRPFWGEVEKLDVPFYLHPRNPLPQDSRIYDGHPWLLGPTWAFAQETAVHALRLMASGLFDEHPRLNIILGHMGEGLPYMMYRIDHRIAWVHEPPRYPAKRRFMDYFNENFHITTSGNFRTQTLIDAILEIGADRILFSTDWPFENIDHAADWFNATSIAEADRVKIGRTNARRLFKLDGD , and I need its recorded Fold Activity. 1.0
